- test system: human recombinant caspase-2 (Homo sapiens)
- Sequence (P42575 170-333 limits assumed): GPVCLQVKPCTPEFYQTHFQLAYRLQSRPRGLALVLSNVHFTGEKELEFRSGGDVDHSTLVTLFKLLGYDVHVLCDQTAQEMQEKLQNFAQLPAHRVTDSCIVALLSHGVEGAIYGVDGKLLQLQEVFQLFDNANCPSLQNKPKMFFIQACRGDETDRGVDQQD
- Sequence (P42575 348-452 limits assumed): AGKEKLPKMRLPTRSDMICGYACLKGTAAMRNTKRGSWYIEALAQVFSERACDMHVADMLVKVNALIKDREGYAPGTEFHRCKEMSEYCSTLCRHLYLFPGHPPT
- assay name: In vitro caspase-2 cleavage assay (Ac-VDVAD-AMC substrate)
- run parameters: Table 4; 30 min pre-incubation, 2 h at 37° C.
- Protocol: Newly designed inhibitors (Ac-LDEAD(SEQ ID NO:7)-CHO, Ac-VDEAD(SEQ ID NO:1)-CHO . . . ) were compared to Ac-VDVAD(SEQ ID NO:9)-CHO in in vitro caspase-2 cleavage assay according to the following protocol (FIG. 8). […] The cleavage of AMC-based substrates by human recombinant caspases 1-10 was measured after 2 h at 37° C. on a fluorescence microplate reader by monitoring emission at 510 nm upon excitation at 405 nm.
Peptide text beside a SMILES is read from it.
quantity kind: IC50 (nM)

compound	test system	IC50 [nM]
CC(=O)N[C@@H](CC(C)C)C(=O)N[C@@H](CC(=O)O)C(=O)N[C@@H](CCC(=O)O)C(=O)N[C@@H](C)C(=O)N[C@H](C=O)CC(=O)O [Compound 14, Ac-LDEAD(SEQ ID NO:7)-cho] (Ac-LDEAD-aldehyde)	human recombinant caspase-2 (Homo sapiens)	85
CC(=O)N[C@@H](CC(C)C)C(=O)N[C@@H](CC(=O)O)C(=O)N[C@@H](CCC(=O)O)C(=O)N[C@@H](CCCCN)C(=O)N[C@H](C=O)CC(=O)O [Compound 27, Ac-LDEKD(SEQ ID NO:5)-cho] (Ac-LDEKD-aldehyde)	human recombinant caspase-2 (Homo sapiens)	300

[I] CC(=O)N[C@@H](CC(C)C)C(=O)N[C@@H](CC(=O)O)C(=O)N[C@@H](CCC(=O)O)C(=O)N[C@@H](CO)C(=O)N[C@H](C=O)CC(=O)O [Compound 1, Ac-LDESD-cho, reference compound] (Ac-LDESD-aldehyde)
[II] CC(=O)N[C@H](C(=O)N[C@@H](CC(=O)O)C(=O)N[C@@H](CCC(=O)O)C(=O)N[C@@H](C)C(=O)N[C@H](C=O)CC(=O)O)C(C)C [Compound 20, Ac-VDEAD(SEQ ID NO:1)-cho] (Ac-VDEAD-aldehyde)
Of I and II , whose reported IC50 is the larger number? Indicate your choice by writing its label.
I
(I: 300 nM, II: 85 nM)
